All figures here come from patent US20240059771A1.

- Measurement Target: human CLDN-18.2 (human, UniProt P56856-2 1-261)
- Assay Text: cell-based or functional assay
The reader will find reported EC50 of ADCC effect (Jurkat NFAT-Luc/FcγRIIIaR reporter cells) values listed item by item below.
Give the value, in units of µg/mL, as a plain number.

# example entries with known answers
binder="anti-CLDN-18.2 chimeric antibody Chi-JS012-27 (antibody, V domains shown, Human heavy chain constant region and human kappa constant region) VH: EVKLVESGGGLVKPGGSLKLSCAASGFTFSSYGMSWVRQTPEKRLECVATISGGDSYTYYPDSVRGRFTISRDIAKNNLYLQMSSLRSEDTALYYCARSYNGNSLPYWGQGTLVTVSS VL: DIVMTQYPSFLTVTTGEKVTMSCKSSQSLLNSGNQRNYLTWYQQKPGQPPKLLIYWASTRESGVPDRFAGSGSGTDFTLTISSVQAEDLAIYYCQNNYFYPFTFGSGTKLEVK" measured_value=0.0432
binder="anti-CLDN-18.2 chimeric antibody Chi-JS012-10 (antibody, V domains shown, Human heavy chain constant region and human kappa constant region) VH: QIQLVQSGPELKKPGETVKISCKASGYTFTNYGMNWVKQAPGKGLKWMGWINTYTGESTYADDFKGRFAFSSETSARTAYLQINNLKNEDMATYFCATLGYGNSLAYWGQGTLVTVSS VL: DIVMTQSPSFLTVTAGEKVTMSCKSSQSLLNSGNQKNYLTWYQQKPGQPPKLLIYWASTRDSGVPDRFTGSGSGTDFTLTITSVQAEDLAVFYCQNAYFYPFTFGSGTKLEIK" measured_value=0.0495
binder="anti-CLDN-18.2 chimeric antibody Chi-JS012-21 (antibody, V domains shown, Human heavy chain constant region and human kappa constant region) VH: QIQLVQSGPELKKPGETVKISCKASGYTFTNYGMNWVKQAPGKGLKWMGWINTYTGESTYADDFKGRFAFSSETSARTAYLQINNLKNEGMATYFCARSYNGNSLPYWGQGTLVTVSS VL: DIVMTQYPSFLTVTTGEKVTMSCKSSQSLLNSGNQRNYLTWYQQKPGQPPKLLIYWASTRESGVPDRFAGSGSGTDFTLTISSVQAEDLAIYYCQNNYFYPFTFGSGTKLEVK" measured_value=0.0631

Which EC50 of ADCC effect (Jurkat NFAT-Luc/FcγRIIIaR reporter cells) value belongs to anti-CLDN-18.2 chimeric antibody Chi-JS012-2 (antibody, V domains shown, Fused to a human heavy chain constant region and a human kappa constant region cloned from human blood cells) VH: DVQLVESGGGLVQPGGSRKLSCAASGFTLNNFGMHWVRQAPEKGLEWVACISSGSGTIYYADTVKGRFTISRDNPKNTLFLQMTSLRSEDTAMYYCARAYYGNGFSFWGQGTLVTVSS VL: DIVMTQSPSSLTVTAGEKVTMSCKSSQSLLNSGNQKNYLTWYQQKPGQPPKLLIYWASTRESGVPDRFTGSGSGTDFTLTISSVQAEDLAIYYCQNVYSYPLTFGAGTKLEIK ?
0.0561

// returns reported EC50 of ADCC effect (Jurkat NFAT-Luc/FcγRIIIaR reporter cells) for input anti-CLDN-18.2 chimeric antibody Chi-JS012-9 (antibody, V domains shown, Human heavy chain constant region and human kappa constant region) VH: QIQLVQSGPELKKPGETVKISCKASGYTFTNYGMNWVKQAPGKGLKWMGWINTYTGESTYADDFKGRFAFSSETSARTAYLQINNLKNEDMATYFCATLGYGNSLAYWGQGTLVTVSS VL: DIVMTQYPSFLTVTTGEKVTMSCKSSQSLLNSGNQRNYLTWYQQKPGQPPKLLIYWASTRESGVPDRFAGSGSGTDFTLTISSVQAEDLAIYYCQNNYFYPFTFGSGTKLEVK
0.0436
